Target: Receptor tyrosine-protein kinase erbB-2 (Homo sapiens)
Method notes: Inhibition of recombinant human HER2 (676 to end residues) assessed as residual activity at 1 uM using poly(Glu, Tyr) 4:1 as substrate incubated for 40 mins by [gamma-33P]-ATP scintillation counting based radiometry assay relative to control
Measured parameter: Activity (%)
Numbers only, in %.

Some compounds with known Activity results, for comparison:
- Chemical structure: "CN(C)c1ccc(Nc2ncnc3sc4c(c23)CCN(C(=O)c2cccnc2)C4)cc1NC(=O)c1ccco1"
  U: "%"
  Readout value: 101
- Chemical structure: "CN(C)c1ccc(Nc2ncnc3sc4c(c23)CCNC4)cc1NC(=O)c1cccc2ccccc12"
  U: "%"
  Readout value: 90
- Chemical structure: "CCC(=O)Nc1cc(Nc2ncnc3sc4c(c23)CCN(CC)C4)ccc1N(C)C"
  U: "%"
  Readout value: 90
- Chemical structure: "CCC(=O)Nc1cc(Nc2ncnc3sc4c(c23)CCN(c2ncccn2)C4)ccc1N(C)C"
  U: "%"
  Readout value: 99
- Chemical structure: "CN(C)CCCN1CCc2c(sc3ncnc(Nc4ccc(N(C)C)c(NC(=O)c5ccco5)c4)c23)C1"
  U: "%"
  Readout value: 96
- Chemical structure: "CN1CCc2c(sc3ncnc(Nc4ccc(N(C)C)c(NC(=O)c5cccnc5)c4)c23)C1"
  U: "%"
  Readout value: 93
- Chemical structure: "CCC(=O)Nc1cc(Nc2ncnc3sc4c(c23)CCN(CCCN2CCOCC2)C4)ccc1N(C)C"
  U: "%"
  Readout value: 108
- Chemical structure: "CN(C)c1ccc(Nc2ncnc3sc4c(c23)CCNC4)cc1NC(=O)c1ccncc1"
  U: "%"
  Readout value: 109

Provide Activity for all items below, preserving their order.
1. CCC(=O)Nc1cc(Nc2ncnc3sc4c(c23)CCNC4)ccc1N(C)C
2. CN(C)c1ccc(Nc2ncnc3sc4c(c23)CCNC4)cc1NC(=O)c1ccccn1
3. CN(C)c1ccc(Nc2ncnc3sc4c(c23)CCN(C(=O)c2ccncc2)C4)cc1NC(=O)c1cccs1
4. CN(C)c1ccc(Nc2ncnc3sc4c(c23)CCNC4)cc1NC(=O)c1cccnc1
5. CN1CCN(CCCN2CCc3c(sc4ncnc(Nc5ccc(N(C)C)c(NC(=O)c6ccco6)c5)c34)C2)CC1
6. CCC(=O)Nc1cc(Nc2ncnc3sc4c(c23)CCN(C)C4)ccc1N(C)C
7. CN(C)c1ccc(Nc2ncnc3sc4c(c23)CCN(C(=O)c2cnccn2)C4)cc1NC(=O)c1cccs1

Return:
[102, 98, 110, 107, 107, 109, 113]

// each compound listed below needs its Activity
1. CCC(=O)Nc1cc(Nc2ncnc3sc4c(c23)CCN(C(=O)c2ccc(C(F)(F)F)cc2)C4)ccc1N(C)C
2. Cc1ccc(C(=O)Nc2cc(Nc3ncnc4sc5c(c34)CCN(C)C5)ccc2N(C)C)cc1

Return:
1: 103; 2: 92

// batch mode: one Activity value per listed entry
1. CN(C)c1ccc(Nc2ncnc3sc4c(c23)CCN(C(=O)c2ncccn2)C4)cc1NC(=O)c1cccs1
2. Cc1ccc(C(=O)Nc2cc(Nc3ncnc4sc5c(c34)CCNC5)ccc2N(C)C)cc1
3. CN(C)c1ccc(Nc2ncnc3sc4c(c23)CCN(C(=O)c2ccncc2)C4)cc1NC(=O)c1ccco1
4. CN1CCc2c(sc3ncnc(Nc4ccc(N(C)C)c(NC(=O)c5cccs5)c4)c23)C1
5. CN1CCc2c(sc3ncnc(Nc4ccc(N(C)C)c(NC(=O)c5ccncc5)c4)c23)C1
6. CN(C)c1ccc(Nc2ncnc3sc4c(c23)CCN(C(=O)c2ccccn2)C4)cc1NC(=O)c1ccco1

Return:
[112, 92, 116, 103, 97, 89]

Reference for the values: ChEMBL document CHEMBL4765301
